- Experimental Protocol: S. pombe growth modifiers, basal conditions – strain 972, OD600, 24 h, no modulator, primary screen (AID 1090);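 note: basal condition with compound alone and no growth modifier present; test concentration not given here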
- Measurement Setup: S. pombe 972 growth, higher = more signal, called active from +8 up or from −8 down
Reported z-score values for the following compounds.

Compound | z-score
O=C1NC(=O)C2C1C=CC(C(O)c1ccc3c(c1)OCO3)N2Nc1ccc(Cl)cc1Cl (stereo not given) | -0.462
C/C=C/[C@@H](CCn1cc([C@H](O)c2ccccc2)nn1)[Si](C)(C)c1ccc(OC)cc1 | -0.143
Cc1ccccc1C(O)C1C=CC2C(=O)N(C)C(=O)C2N1Nc1ccc([N+](=O)[O-])cc1[N+](=O)[O-] (stereo not given) | 0.73
CCOC(=O)C1=CC[C@@H](c2ccccc2)N(S(=O)(=O)c2ccc(C)cc2)[C@H]1C=C(C)C | 2.76
C[N+](C)(C)CCCCCCNC(=O)[C@@H]1C[C@@H]2C(=O)NCC(=O)N2[C@@H]1c1cccc(OCCO)c1 | 0.0641
C=C(C(=O)CC[C@H](OC(=O)c1cccnc1)c1ccc(OCCO)cc1)C(C)C | -1.54
COC(=O)[C@@]1(Cc2ccccc2N=[N+]=[N-])N=C(c2ccc(OCCCO)cc2)O[C@H]1c1ccccc1 | -3
O=C(CS)NCCCCCNC(=O)[C@@H]1C[C@@H]2C(=O)N3CCC[C@H]3C(=O)N2[C@@H]1c1ccc(O)cc1 | -0.207
Cc1ccc(C(C)CC(O)C2C=CC3C(=O)N(Cc4ccccc4)C(=O)C3N2n2cnnc2)o1 (stereo not given) | -2.84
CN(C)CCCNC(=O)[C@@]1(Cc2ccccc2I)c2ccccc2C(=O)N(Cc2ccccc2Cl)[C@H]1c1ccc(CO)cc1 | -19.8
